From: paper PMC10786891

Each entry below carries its recorded Kd.
Molecular target: T1, EsCas13d, nuclease-dead (Eubacterium siraeum, UniProt B0MS50, R295A;H300A;R849A;H854A)
T1 sequence: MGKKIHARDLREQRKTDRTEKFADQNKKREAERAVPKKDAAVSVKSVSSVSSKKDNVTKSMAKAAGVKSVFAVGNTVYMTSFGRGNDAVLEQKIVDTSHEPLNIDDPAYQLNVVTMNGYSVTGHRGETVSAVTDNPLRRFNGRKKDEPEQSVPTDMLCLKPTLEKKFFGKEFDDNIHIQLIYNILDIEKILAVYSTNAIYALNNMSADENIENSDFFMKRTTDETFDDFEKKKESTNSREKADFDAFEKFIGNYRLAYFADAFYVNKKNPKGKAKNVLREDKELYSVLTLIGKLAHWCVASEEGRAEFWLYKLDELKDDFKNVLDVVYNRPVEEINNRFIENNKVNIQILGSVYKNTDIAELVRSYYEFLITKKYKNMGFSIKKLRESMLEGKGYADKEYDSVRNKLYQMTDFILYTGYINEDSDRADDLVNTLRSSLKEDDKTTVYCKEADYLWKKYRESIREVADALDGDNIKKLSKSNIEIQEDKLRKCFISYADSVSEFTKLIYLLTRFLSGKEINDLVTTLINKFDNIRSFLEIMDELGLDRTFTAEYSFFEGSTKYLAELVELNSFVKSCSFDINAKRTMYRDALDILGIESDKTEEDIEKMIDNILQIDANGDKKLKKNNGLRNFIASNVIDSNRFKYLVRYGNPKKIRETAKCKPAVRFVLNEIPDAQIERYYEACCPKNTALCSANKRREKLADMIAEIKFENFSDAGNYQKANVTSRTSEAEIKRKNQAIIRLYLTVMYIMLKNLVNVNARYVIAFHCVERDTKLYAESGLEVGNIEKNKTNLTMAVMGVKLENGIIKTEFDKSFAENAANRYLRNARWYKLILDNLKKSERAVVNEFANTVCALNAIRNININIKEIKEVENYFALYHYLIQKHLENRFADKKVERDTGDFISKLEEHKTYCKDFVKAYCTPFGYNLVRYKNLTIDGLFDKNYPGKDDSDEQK
Assay: crRNA (strand 1, pre-loaded); Mg2+; 40 mM Tris-HCl pH 7.5, 150 mM NaCl, 6 mM MgCl2, 1 mM DTT, 0.1% Tween-20, 0.2 mg/ml BSA; 25 C; 10 min per concentration, then washed
Details: tags: His6-TwinStrep-SUMO cleaved; N-terminal SNAP kept (SNAP-Surface 488); label: 3' end held by stalled T7 RNA polymerase

| Binder | Kd / nM |
| --- | --- |
| target 3 insA 3' of 14,insG 3' of 5 (mixed) RNA 1: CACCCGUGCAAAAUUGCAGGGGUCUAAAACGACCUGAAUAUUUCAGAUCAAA RNA 2: GGGAAUGGAUCCACAUCUACGAAUUCGUUUUUGAUCUGAAAAUAUUCAGGGUCUGCAGAUCGGAAGAGCACACGU | 105 |
| target 1 insU 3' of 9,insA 3' of 6 (mixed) RNA 1: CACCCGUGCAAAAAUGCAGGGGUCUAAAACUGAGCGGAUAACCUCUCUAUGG RNA 2: GGGAAUGGAUCCACAUCUACGAAUUCGUACCAUAGAGAGGUUAUUCCAGCUCACCGAGAUCGGAAGAGCACACGU | 23.5 |
| target 1 G5U,G13C (mixed) RNA 1: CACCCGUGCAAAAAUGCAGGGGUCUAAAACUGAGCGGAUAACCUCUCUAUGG RNA 2: GGGAAUGGAUCCACAUCUACGAAUUCGUACCAUAGAGACGUUAUCCUCUCACCGAGAUCGGAAGAGCACACGU | 39 |
| target 2 MT 5'PFS ACA 3'PFS AUA (mixed) RNA 1: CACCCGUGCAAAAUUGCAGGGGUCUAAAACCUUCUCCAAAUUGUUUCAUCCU RNA 2: GGGAAUGGAUCCACAUCUACGAAUUCACAAGGAUGAAACAAUUUGGAGAAGAUAAGAUCGGAAGAGCACACGU | 5.7 |
